Source: ChEMBL document CHEMBL1155318

Target: UniProt Q99705
Sequence (Q99705 whole entry): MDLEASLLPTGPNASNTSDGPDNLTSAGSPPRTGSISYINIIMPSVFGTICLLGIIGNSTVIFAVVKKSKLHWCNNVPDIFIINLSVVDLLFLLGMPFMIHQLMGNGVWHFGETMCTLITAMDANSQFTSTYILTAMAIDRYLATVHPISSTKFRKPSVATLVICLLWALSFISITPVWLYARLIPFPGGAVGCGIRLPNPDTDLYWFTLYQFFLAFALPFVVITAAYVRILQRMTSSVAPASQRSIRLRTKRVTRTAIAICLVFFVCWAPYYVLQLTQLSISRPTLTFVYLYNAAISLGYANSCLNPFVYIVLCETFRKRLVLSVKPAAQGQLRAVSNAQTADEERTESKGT
Experiment: Displacement of [125I]MCH from human recombinant MCH1R expressed on CHOK1 cell membrane
Assay type: cell membranes, CHO-K1
pIC50: −log10 of the molar value.
Assign YES to entries whose pIC50 meets or exceeds 8; assign NO to the rest.

[[record]]
cpd_smiles = "CCCN(C)Cc1ccc(CCn2ccc(OCc3ccc(F)cc3)cc2=O)cc1"
classification = "YES"

[[record]]
cpd_smiles = "O=c1cc(OCc2ccc(F)cc2)ccn1-c1ccc(OCCN2CCCC2)cc1"
classification = "YES"

[[record]]
cpd_smiles = "O=c1cc(OCc2ccc(F)cc2)ccn1-c1ccc(CN2CCCC2)cc1"
classification = "NO"

[[record]]
cpd_smiles = "O=c1cc(OCc2ccc(F)cc2)ccn1CCc1ccc(N2CCCC2)cc1"
classification = "NO"

[[record]]
cpd_smiles = "CCCN(Cc1ccc(CCn2ccc(OCc3ccc(F)cc3)cc2=O)cc1)C(C)C"
classification = "YES"

[[record]]
cpd_smiles = "O=c1cc(OCc2ccc(F)cc2)ccn1Cc1cccc(OCCCN2CCCC2)c1"
classification = "NO"

